FYI, the data here is from ChEMBL document CHEMBL5291721.

- measured on: Gastrin/cholecystokinin type B receptor (Homo sapiens)
- Sequence (P32239 whole entry): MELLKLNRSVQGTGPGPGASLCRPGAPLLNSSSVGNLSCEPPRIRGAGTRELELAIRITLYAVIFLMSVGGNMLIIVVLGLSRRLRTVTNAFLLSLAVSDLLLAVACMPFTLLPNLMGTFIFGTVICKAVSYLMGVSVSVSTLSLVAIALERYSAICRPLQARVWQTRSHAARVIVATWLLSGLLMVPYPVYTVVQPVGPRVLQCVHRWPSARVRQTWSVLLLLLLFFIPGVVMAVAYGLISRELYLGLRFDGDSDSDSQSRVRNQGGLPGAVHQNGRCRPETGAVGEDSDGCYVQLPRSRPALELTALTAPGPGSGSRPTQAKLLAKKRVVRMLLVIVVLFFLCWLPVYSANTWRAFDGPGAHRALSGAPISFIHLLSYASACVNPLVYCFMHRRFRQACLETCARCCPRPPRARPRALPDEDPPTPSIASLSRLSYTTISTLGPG
AC50 values for the compounds below.

{"columns": ["compound", "measured on", "AC50"],
 "data": [
  ["Cc1cc2nc3c(=O)[nH]c(=O)nc-3n(C[C@H](O)[C@H](O)[C@H](O)COP(=O)(O)O)c2cc1C [RIBOFLAVIN 5'-PHOSPHATE]", "Gastrin/cholecystokinin type B receptor (Homo sapiens)", "> 30 µM"],
  ["Cn1c(=O)c2[nH]cnc2n(C)c1=O", "Gastrin/cholecystokinin type B receptor (Homo sapiens)", "> 30 µM"],
  ["CC(=O)OCC(CCn1cnc2cnc(N)nc21)COC(C)=O", "Gastrin/cholecystokinin type B receptor (Homo sapiens)", "> 30 µM"],
  ["COc1cccc2c1C(=O)c1c(O)c3c(c(O)c1C2=O)C[C@@](O)(C(C)=O)C[C@@H]3O[C@H]1C[C@H](N)[C@H](O)[C@H](C)O1", "Gastrin/cholecystokinin type B receptor (Homo sapiens)", "> 30 µM"],
  ["CCN(CC)C(=O)C1CN2CCc3cc(OC)c(OC)cc3C2CC1OC(C)=O (configuration not stated) [BENZQUINAMIDE]", "Gastrin/cholecystokinin type B receptor (Homo sapiens)", "> 30 µM"],
  ["CC(=O)S[C@@H]1CC2=CC(=O)CC[C@]2(C)[C@H]2CC[C@@]3(C)[C@@H](CC[C@@]34CCC(=O)O4)[C@H]12", "Gastrin/cholecystokinin type B receptor (Homo sapiens)", "> 30 µM"],
  ["CCOC(=O)Nc1ccc2c(c1)N(C(=O)CCN1CCOCC1)c1ccccc1S2", "Gastrin/cholecystokinin type B receptor (Homo sapiens)", "> 30 µM"]
]}
